Ref: paper PMC11995724

# Assay procedure: in vitro
# Experimental context: human, hek293t cells
Items are presented alongside their recorded viability at 48 h, 25 µM.
Give just the number in %; leave the unit off.

INSERT INTO measurements (compound, measurement_unit, value) VALUES
  ('Cc1nc2cc(=O)[nH]n2c(C)c1CNC(=O)C(C)Cl (stereo not shown)', '%', 96.1),
  ('CC(Cl)C(=O)N1CCCC1c1cccc(N(C)C)c1 (stereo not shown)', '%', 68.7),
  ('CC1CC(C(=O)CCl)CO1 (stereo not shown)', '%', 102),
  ('CC(Cl)C(=O)NCC1(C2CC2)CCC1 (stereo not shown)', '%', 81.1),
  ('CCC1SC(=C(C#N)C(=O)NC)N(c2ccc(Cl)cc2)C1=O (stereo not shown)', '%', 132);

viability at 48 h, 25 µM for CN1C(=O)[C@H](NC(=O)CCl)COc2ccccc21 is 2.02

viability at 48 h, 25 µM for C=CC(=O)N1CCOC(c2ccccc2)C1 (stereo not shown) is 118

viability at 48 h, 25 µM for O=C(CCl)NCCc1cnn(-c2ccccc2)c1 is 1.31

viability at 48 h, 25 µM for C=CC(=O)NCC1(C)CCC(C)(C)CC1 is 83.2
